Data origin: paper PMC9151729

# test: Solubility of empagliflozin in supercritical carbon dioxide (isobaric-isothermal method, UV-Vis at 276 nm)
# Format: physicochemical
# test parameters: supercritical carbon dioxide (ScCO2), thermodynamic from solid, 338 K, 15 MPa, ScCO2 density 557 kg/m^3; read-out: S (equilibrium solubility) in ScCO2
measured metric: solubility thermodynamic at 60 min

Incoming: Give me measured solubility thermodynamic at 60 min, please, for this compound: OC[C@H]1O[C@@H](c2ccc(Cl)c(Cc3ccc(O[C@H]4CCOC4)cc3)c2)[C@H](O)[C@@H](O)[C@@H]1O [empagliflozin]
Outgoing: 53 µg/mL

###

# test: Solubility of empagliflozin in supercritical carbon dioxide (isobaric-isothermal method, UV-Vis at 276 nm)
# Format: physicochemical
# test parameters: supercritical carbon dioxide (ScCO2), thermodynamic from solid, 318 K, 12 MPa, ScCO2 density 661 kg/m^3; read-out: S (equilibrium solubility) in ScCO2
measured metric: solubility thermodynamic at 60 min (µg/mL)
State just the number; it will be interpreted in µg/mL.

Incoming: Give me measured solubility thermodynamic at 60 min, please, for this molecule: OC[C@H]1O[C@@H](c2ccc(Cl)c(Cc3ccc(O[C@H]4CCOC4)cc3)c2)[C@H](O)[C@@H](O)[C@@H]1O
Outgoing: 47.9
